B1: library; numbered along this chain (parent)
chain: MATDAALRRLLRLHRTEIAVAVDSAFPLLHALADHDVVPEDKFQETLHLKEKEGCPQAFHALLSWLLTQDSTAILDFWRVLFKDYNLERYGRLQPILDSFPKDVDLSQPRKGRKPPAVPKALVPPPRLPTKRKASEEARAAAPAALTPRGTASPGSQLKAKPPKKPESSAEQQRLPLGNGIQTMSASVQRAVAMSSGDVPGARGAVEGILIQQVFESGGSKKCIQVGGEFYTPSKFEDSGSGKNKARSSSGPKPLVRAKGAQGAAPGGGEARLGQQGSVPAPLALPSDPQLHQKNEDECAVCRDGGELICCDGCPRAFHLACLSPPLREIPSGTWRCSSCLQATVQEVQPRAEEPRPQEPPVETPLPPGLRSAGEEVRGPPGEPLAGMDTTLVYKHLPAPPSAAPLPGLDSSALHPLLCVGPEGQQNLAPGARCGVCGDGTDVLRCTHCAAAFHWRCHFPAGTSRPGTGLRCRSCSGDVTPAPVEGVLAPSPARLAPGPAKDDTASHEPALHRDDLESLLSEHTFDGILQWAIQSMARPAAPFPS

variants of: B1; experiment: AIRE transcriptional activation functional score (insulin promoter-GFP; nonsense median 0, synonymous median 1) (normalised score); higher = higher AIRE activity (more reporter activation); conditions: with insulin promoter-GFP reporter in HEK293
Observable: AIRE transcriptional activation functional score

Sample records with AIRE transcriptional activation functional score:
- Mutant id: "G228A"
  Observed result: 0.509
- Mutant id: "D514M"
  Observed result: 0.515

Below is a list of variants. For each, state its recorded AIRE transcriptional activation functional score.
1. L87I
2. K131V
3. E137S
4. F318K
5. V479T
6. R127W
7. L308P
8. R303H

[A]
1.66
0.174
0.539
1.39
0.956
0.912
0.912
1.12

[Q] So what's the measured AIRE transcriptional activation functional score for this one? `S217I`
[A] 0.549
